Here the recorded GI50 is given for each entry.
- Tested on: A549/ATCC
- Protocol notes: NCI-60 drug screen (SRB), NSCLC line A549/ATCC
- Format: cell-based, human
- Condition: Homo sapiens, 48 hours drug exposure, SRB, read-out: GI50

Below are worked cases with known answers.
* CN(C)CCCSc1nc2ccc3c(c2[nH]1)C(=O)c1ccccc1C3=O | 3.26 µM
* Cc1ccc(C(=O)Nc2c(NC(=O)CCl)ccc3c2C(=O)c2ccccc2C3=O)cc1 | 12.3 µM

Consider the record given below.
So for CCN(CC)CCC(=O)Nc1ccc2c(c1)C(=O)c1cc(NC(=O)CCN(CC)CC)ccc1C2=O , the logged GI50 turned out to be 1.44 µM

###

Reported TGI values are given for each entry in this list.
- Test system: HOP-62
- Protocol notes: NCI-60 drug screen (SRB), NSCLC line HOP-62
- Assay type: cell-based, human
- Condition: 48 hours drug exposure, SRB
Number only, in µM; omit the unit.

Worked set:
- Cc1ccc(C(=O)Nc2c(NC(=O)CCl)ccc3c2C(=O)c2ccccc2C3=O)cc1: 9.49
- CN1CCN(Cc2nc3ccc4c(c3[nH]2)C(=O)c2ccccc2C4=O)CC1: 30.5
- O=C1c2ccccc2C(=O)c2c1ccc1nc(SCCN3CCCC3)[nH]c21: 33.2
- CCN(CC)CCC(=O)Nc1ccc2c(c1)C(=O)c1cc(NC(=O)CCN(CC)CC)ccc1C2=O: 5.80
- CN(C)CC(=O)Nc1ccc2c(c1)C(=O)c1cc(NC(=O)CN(C)C)ccc1C2=O: 20.5

O=C(CCN1CCCC1)Nc1ccc2c(c1)C(=O)c1cc(NC(=O)CCN3CCCC3)ccc1C2=O has a reported TGI of 11.6

Sample CN(C)CCCSc1nc2ccc3c(c2[nH]1)C(=O)c1ccccc1C3=O ; TGI observed: 32.3

###

Listed compounds paired with reported TGI
- Test system: NCI-H23
- Protocol notes: NCI-60 drug screen (SRB), NSCLC line NCI-H23
- Format: cell-based, human
- Condition: 48 hours drug exposure, SRB
# unit: µM | format: bare number

Example cases with answers are listed next.
• Cc1ccc(C(=O)Nc2c(NC(=O)CCl)ccc3c2C(=O)c2ccccc2C3=O)cc1 [NSC749232] = 8.28
• O=C1c2ccccc2C(=O)c2c1ccc1nc(SCCN3CCCC3)[nH]c21 [NSC747515] = 25.7
• CCN(CC)CCC(=O)Nc1ccc2c(c1)C(=O)c1cc(NC(=O)CCN(CC)CC)ccc1C2=O [NSC746365] = 3.55
• O=C(CCN1CCCC1)Nc1ccc2c(c1)C(=O)c1cc(NC(=O)CCN3CCCC3)ccc1C2=O [NSC746366] = 17.3
• CN(C)CCCSc1nc2ccc3c(c2[nH]1)C(=O)c1ccccc1C3=O [NSC747854] = 19.7

Lookup result for CN(C)CC(=O)Nc1ccc2c(c1)C(=O)c1cc(NC(=O)CN(C)C)ccc1C2=O [NSC746364] ; measured TGI: 28.1

compound CN1CCN(Cc2nc3ccc4c(c3[nH]2)C(=O)c2ccccc2C4=O)CC1 [NSC749235] , TGI observed: 30.1

###

- Target or system: PARP-1 (Homo sapiens)
- Construct: purchased
- Sequence (P09874 whole entry): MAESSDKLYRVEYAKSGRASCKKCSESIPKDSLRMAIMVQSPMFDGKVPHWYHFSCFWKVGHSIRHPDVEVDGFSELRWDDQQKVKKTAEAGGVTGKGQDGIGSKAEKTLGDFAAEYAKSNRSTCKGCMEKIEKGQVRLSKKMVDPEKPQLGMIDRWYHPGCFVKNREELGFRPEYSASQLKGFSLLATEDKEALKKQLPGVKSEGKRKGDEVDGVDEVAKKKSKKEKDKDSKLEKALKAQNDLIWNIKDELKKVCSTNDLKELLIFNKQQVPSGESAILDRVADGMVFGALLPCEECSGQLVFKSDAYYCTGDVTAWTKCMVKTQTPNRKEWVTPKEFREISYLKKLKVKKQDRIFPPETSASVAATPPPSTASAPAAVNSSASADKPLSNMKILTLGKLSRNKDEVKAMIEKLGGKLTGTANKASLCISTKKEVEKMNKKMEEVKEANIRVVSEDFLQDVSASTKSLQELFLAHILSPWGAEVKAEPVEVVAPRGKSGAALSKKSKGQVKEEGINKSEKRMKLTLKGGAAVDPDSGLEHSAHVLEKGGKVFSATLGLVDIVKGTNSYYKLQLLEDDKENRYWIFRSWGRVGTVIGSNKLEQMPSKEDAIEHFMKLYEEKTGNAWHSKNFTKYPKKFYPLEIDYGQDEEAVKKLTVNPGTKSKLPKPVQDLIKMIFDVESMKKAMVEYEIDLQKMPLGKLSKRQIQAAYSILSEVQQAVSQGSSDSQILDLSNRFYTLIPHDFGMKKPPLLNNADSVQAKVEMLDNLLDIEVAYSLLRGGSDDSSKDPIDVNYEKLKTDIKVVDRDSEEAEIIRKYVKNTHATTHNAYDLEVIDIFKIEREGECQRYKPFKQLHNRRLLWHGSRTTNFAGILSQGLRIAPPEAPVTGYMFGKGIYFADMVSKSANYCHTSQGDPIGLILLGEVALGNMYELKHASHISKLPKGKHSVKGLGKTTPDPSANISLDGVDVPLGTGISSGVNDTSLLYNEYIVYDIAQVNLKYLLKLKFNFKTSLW
- Protocol notes: PARP inhibitory assay (histone-coated plate, colorimetric)
- Type: biochemical
- Condition: 0.1 µM
- Procedure: We used histone-coated 96-well plate treated with seven putative PARP-1 inhibitors or well-known PARP-1 inhibitors (3-AB), and then added PARP enzyme to each well. […] Cell growth was analyzed by the MTT assay, with differences between dose-response curves analyzed non-parametrically. Telomerase activity was detected by a modified version of the PCR-based assay and TRAP assay. […]
Result type: inhibition at 0.1 µM

• O=C1c2ccccc2C(=O)c2c1ccc1nc(SCCN3CCCC3)[nH]c21 [NSC747515] = 20%
• O=C(CCN1CCCC1)Nc1ccc2c(c1)C(=O)c1cc(NC(=O)CCN3CCCC3)ccc1C2=O [NSC746366] = 16%
• CCN(CC)CCC(=O)Nc1ccc2c(c1)C(=O)c1cc(NC(=O)CCN(CC)CC)ccc1C2=O [NSC746365] = 50%
• CN(C)CC(=O)Nc1ccc2c(c1)C(=O)c1cc(NC(=O)CN(C)C)ccc1C2=O [NSC746364] = 31%
• CN(C)CCCSc1nc2ccc3c(c2[nH]1)C(=O)c1ccccc1C3=O [NSC747854] = 30%
• CN1CCN(Cc2nc3ccc4c(c3[nH]2)C(=O)c2ccccc2C4=O)CC1 [NSC749235] = 40%
• NC(=O)c1cccc(N)c1 [3-AB, 3-Aminobenzamide, reference compound] = 4%

# ---- query compound ----
# inhibition at 0.1 µM (compound: Cc1ccc(C(=O)Nc2c(NC(=O)CCl)ccc3c2C(=O)c2ccccc2C3=O)cc1 [NSC749232] ) is 42%

###

- Test system: NCI-H522
- Protocol notes: NCI-60 drug screen (SRB), NSCLC line NCI-H522
- Format: cell-based, human
- Condition: Homo sapiens, 48 hours drug exposure, SRB, read-out: GI50
Result type: GI50

* CN(C)CC(=O)Nc1ccc2c(c1)C(=O)c1cc(NC(=O)CN(C)C)ccc1C2=O | 1.27 µM
* CN1CCN(Cc2nc3ccc4c(c3[nH]2)C(=O)c2ccccc2C4=O)CC1 | 13.8 µM

Next molecule, please.
// GI50 value for O=C1c2ccccc2C(=O)c2c1ccc1nc(SCCN3CCCC3)[nH]c21 : 15.9 µM

###

- Tested on: EKVX
- Protocol notes: NCI-60 drug screen (SRB), NSCLC line EKVX
- Assay type: cell-based, human
- Condition: Homo sapiens, 48 hours drug exposure, SRB
Result type: LC50 (µM)
A number alone suffices; assume µM.

Observe how each entry below is paired with its result.
* O=C1c2ccccc2C(=O)c2c1ccc1nc(SCCN3CCCC3)[nH]c21 | 62.4
* CN(C)CC(=O)Nc1ccc2c(c1)C(=O)c1cc(NC(=O)CN(C)C)ccc1C2=O | 77.4

Short answer on EKVX for CCN(CC)CCC(=O)Nc1ccc2c(c1)C(=O)c1cc(NC(=O)CCN(CC)CC)ccc1C2=O , LC50: 34.6

###

# GI50 listing for each entry below
- Tested on: NCI-H460
- Protocol notes: NCI-60 drug screen (SRB), NSCLC line NCI-H460
- Format: cell-based, human
- Condition: Homo sapiens, 48 hours drug exposure, SRB, read-out: GI50
Give the value in nM but do not write nM after it.

* Cc1ccc(C(=O)Nc2c(NC(=O)CCl)ccc3c2C(=O)c2ccccc2C3=O)cc1 [NSC749232] | 5810
* CN(C)CC(=O)Nc1ccc2c(c1)C(=O)c1cc(NC(=O)CN(C)C)ccc1C2=O [NSC746364] | 1370
* CCN(CC)CCC(=O)Nc1ccc2c(c1)C(=O)c1cc(NC(=O)CCN(CC)CC)ccc1C2=O [NSC746365] | 1900
* CN1CCN(Cc2nc3ccc4c(c3[nH]2)C(=O)c2ccccc2C4=O)CC1 [NSC749235] | 3790
* CN(C)CCCSc1nc2ccc3c(c2[nH]1)C(=O)c1ccccc1C3=O [NSC747854] | 2130
* O=C1c2ccccc2C(=O)c2c1ccc1nc(SCCN3CCCC3)[nH]c21 [NSC747515] | 1680

Please look at the following compound next.
get_value(item= O=C(CCN1CCCC1)Nc1ccc2c(c1)C(=O)c1cc(NC(=O)CCN3CCCC3)ccc1C2=O [NSC746366] , readout=GI50) returns 2690

###

- System: A549/ATCC
- Protocol notes: NCI-60 drug screen (SRB), NSCLC line A549/ATCC
- Format: cell-based, human
- Condition: Homo sapiens, 48 hours drug exposure, SRB, read-out: GI50
Listing: GI50 of selected compounds
// units = nM; emit number, no label

* CN1CCN(Cc2nc3ccc4c(c3[nH]2)C(=O)c2ccccc2C4=O)CC1 [NSC749235] | 7580
* O=C(CCN1CCCC1)Nc1ccc2c(c1)C(=O)c1cc(NC(=O)CCN3CCCC3)ccc1C2=O [NSC746366] | 2200
* O=C1c2ccccc2C(=O)c2c1ccc1nc(SCCN3CCCC3)[nH]c21 [NSC747515] | 3800

// switching to the query compound
Form field GI50, entry CN(C)CC(=O)Nc1ccc2c(c1)C(=O)c1cc(NC(=O)CN(C)C)ccc1C2=O [NSC746364] : 1450

###

Entries annotated with measured LC50 (concentration killing 50% of cells)
- System: NCI-H460
- Protocol notes: NCI-60 drug screen (SRB), NSCLC line NCI-H460
- Format: cell-based, human
- Condition: Homo sapiens, 48 hours drug exposure, SRB
Answer with a number only, understood to be in µM.

- Cc1ccc(C(=O)Nc2c(NC(=O)CCl)ccc3c2C(=O)c2ccccc2C3=O)cc1: 34.1

Please fill in: LC50 (concentration killing 50% of cells) reported for CN1CCN(Cc2nc3ccc4c(c3[nH]2)C(=O)c2ccccc2C4=O)CC1 = 45.1

Lookup result for CN(C)CC(=O)Nc1ccc2c(c1)C(=O)c1cc(NC(=O)CN(C)C)ccc1C2=O ; measured LC50 (concentration killing 50% of cells): 8.2

Per the records, this compound ( O=C1c2ccccc2C(=O)c2c1ccc1nc(SCCN3CCCC3)[nH]c21 ) has LC50 (concentration killing 50% of cells) equal to 29.3
